Measured EC50 by item
Target: human FFAR1 (GPR40) (Homo sapiens)
Construct: Flag
Assay: NFAT-RE-based reporter gene activity assay (Dual-Glo luciferase) for GPR40 agonistic activity in co-transfected HEK293T cells
Conditions: 4-hour treatment
Description: The pcDNA3.0-flag-FFAR1 (GPR40) plasmid was constructed using conventional molecular cloning methods. […] After 4 hours of compound treatment, the cells were assayed according to the instructions of the Dual-Glo® Luciferase Assay System (Promega, # E2940). […] Then, 80 µL of the lysate reaction solution was transferred to a white opaque optiPlate-96 well plate, and the luminescence signal of Firefly luciferase (Firefly-Luc) was measured using an MD i3x multifunctional microplate reader. […]

>>> df
                                   compound      obs_value
0  COc1ccc(F)c(N2CCC(c3oc4cc([C@@H](CC(=O)O)C5CC5)ccc4c3-c3cccc(C)c3)CC2)c1  100 to 500 nM
1  CC(C)(C)n1cc(-c2c(C3CCN(c4ccc5c(c4)OC(F)(F)O5)CC3)oc3cc([C@@H](CC(=O)O)C4CC4)ccc23)cn1  100 to 500 nM
2  COc1cccc(N2CCC(c3oc4cc(C(CC(=O)O)C5CC5)ccc4c3-c3cc(C(C)(C)C)no3)CC2)c1 (stereo not shown)        ≤ 10 nM
3  CCCCCCCC(C)(C)c1nnc(-c2c(C3CCN(c4cccc(OC)c4)CC3)oc3cc(C(CC(=O)O)C4CC4)ccc23)o1 (stereo not shown)   10 to 100 nM
4  COc1cccc(N2CCC(c3oc4cc([C@@H](CC(=O)O)C5CC5)ccc4c3C(C)OC)CC2)c1 (stereo partly shown)  100 to 500 nM
5  COc1cccc(N2CCC(c3oc4cc(C(CC(=O)O)C5CC5)ccc4c3-c3cnc(C)s3)CC2)c1 (stereo not shown)  100 to 500 nM

Please examine the following record next.
Data request: Return reported EC50 for target or system human FFAR1 (GPR40) (Homo sapiens), item COc1cccc(N2CCC(c3oc4cc([C@@H](CC(=O)O)C5CC5)ccc4c3-c3cccc(C(C)(C)C)c3)CC2)c1 .
Data returned: 10 to 100 nM

* * *

Target: human FFAR1 (GPR40) (Homo sapiens)
Construct: Flag
Assay: NFAT-RE-based reporter gene activity assay (Dual-Glo luciferase) for GPR40 agonistic activity in co-transfected HEK293T cells
Conditions: 4-hour treatment
Method: The pcDNA3.0-flag-FFAR1 (GPR40) plasmid was constructed using conventional molecular cloning methods. […] After 4 hours of compound treatment, the cells were assayed according to the instructions of the Dual-Glo® Luciferase Assay System (Promega, # E2940). […] Then, 80 µL of the lysate reaction solution was transferred to a white opaque optiPlate-96 well plate, and the luminescence signal of Firefly luciferase (Firefly-Luc) was measured using an MD i3x multifunctional microplate reader. […]
measured.metric: EC50

# example entries with known answers
                                   molecule      obs_value
0  COc1cccc(N2CCC(c3oc4cc([C@@H](CC(=O)O)C5CC5)ccc4c3-c3nc(C(C)(C)C)cs3)CC2)c1   10 to 100 nM
1  CC(C)(C)c1ccc(-c2c(C3CCN(c4ccc5ccoc5c4)CC3)oc3cc(C(CC(=O)O)C4CC4)ccc23)cc1 (centres unmarked)  100 to 500 nM
2  COc1cccc(N2CCC(c3oc4cc([C@@H](CC(=O)O)C5CC5)ccc4c3C(=O)N(C)c3cc(C(F)(F)F)ccc3Cl)CC2)c1  100 to 500 nM
3  CC(C)(C)n1cc(-c2c(C3CCN(c4cccc(F)c4)CC3)oc3cc(C(CC(=O)O)C4CC4)ccc23)cn1 (centres unmarked)  100 to 500 nM
4  CN1CCC(c2oc3cc(C(CC(=O)O)C4CC4)ccc3c2-c2cccc(C(C)(C)C)c2)CC1 (centres unmarked)      > 1000 nM
5  CC(C)(C)n1cc(-c2c(C3CCN(c4cccc(C5CC5)c4)CC3)oc3cc(C(CC(=O)O)C4CC4)ccc23)cn1 (centres unmarked)  100 to 500 nM
6  COc1ccc(F)c(N2CCC(c3oc4cc(C(CC(=O)O)C5CC5)ccc4c3-c3cccc(NC(C)C)c3)CC2)c1 (centres unmarked)  100 to 500 nM
7  COc1ccc(F)c(N2CCC(c3oc4cc([C@@H](CC(=O)O)C5CC5)ccc4c3-c3ccc(C(=O)NCC(C)(C)C)cc3)CC2)c1  100 to 500 nM
8  COc1cccc(N2CCC(c3oc4cc([C@@H](CC(=O)O)C5CC5)ccc4c3-c3nc4ccccc4s3)CC2)c1  100 to 500 nM
9  COc1ccc(F)c(N2CCC(c3oc4cc(C(CC(=O)O)C5CC5)ccc4c3C(=O)Nc3ccccc3)CC2)c1 (centres unmarked)  100 to 500 nM

Data request: Supply recorded EC50 for COc1cccc(N2CCC(c3oc4cc([C@@H](CC(=O)O)C5CC5)ccc4c3C(=O)Nc3cc(C)ccc3F)CC2)c1 here.
Data returned: ≤ 10 nM

Data request: Supply recorded EC50 for COc1cccc(N2CCC(c3oc4cc(C(CC(=O)O)C5CC5)ccc4c3-c3cn(C)nn3)CC2)c1 (centres unmarked) here.
Data returned: > 500 nM

Data request: Supply recorded EC50 for COc1cccc(N2CCC(c3oc4cc(C(CC(=O)O)C5CC5)ccc4c3-c3nnc(-c4ccccc4)o3)CC2)c1 (centres unmarked) here.
Data returned: 100 to 500 nM

Data request: Supply recorded EC50 for COc1cccc(N2CCC(c3oc4cc(CC(C)C(=O)O)ccc4c3-c3cnn(C(C)(C)C)c3)CC2)c1 (centres unmarked) here.
Data returned: 100 to 500 nM

* * *

Biological target: human FFAR1 (GPR40) (Homo sapiens, UniProt O14842)
Construct: Flag
Sequence (O14842 whole entry): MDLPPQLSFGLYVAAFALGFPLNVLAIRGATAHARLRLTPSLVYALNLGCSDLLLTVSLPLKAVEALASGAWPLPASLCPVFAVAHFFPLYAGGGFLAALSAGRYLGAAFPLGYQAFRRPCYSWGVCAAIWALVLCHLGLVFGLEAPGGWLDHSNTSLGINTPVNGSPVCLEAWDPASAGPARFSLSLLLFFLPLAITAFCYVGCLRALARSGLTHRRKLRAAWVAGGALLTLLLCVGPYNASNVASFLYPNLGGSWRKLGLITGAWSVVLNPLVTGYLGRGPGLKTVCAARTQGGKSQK
Assay: NFAT-RE-based reporter gene activity assay (Dual-Glo luciferase) for GPR40 agonistic activity in co-transfected HEK293T cells
Details: 4-hour treatment
pEC50: −log10 of the molar value.
measured.metric: pEC50

In [3]: df
Out[3]:
                                   compound  measured_metric     obs_value
0  COc1ccc(N2CCC(c3oc4cc(C(CC(=O)O)C5CC5)ccc4c3-c3cccc(C(C)(C)C)c3)CC2)cc1 (stereo not shown)            pEC50  6.30 to 7.00
1  COc1cccc(N2CCC(c3oc4cc([C@@H](CC(=O)O)C5CC5)ccc4c3C(=O)NC34CC5CC(C)(CC(C)(C5)C3)C4)CC2)c1            pEC50  6.30 to 7.00
2  CCOc1cccc(N2CCC(c3oc4cc(C(CC(=O)O)C5CC5)ccc4c3-c3ccc(C(C)(C)C)cc3)CC2)c1 (stereo not shown)            pEC50  6.30 to 7.00
3  COc1cccc(N2CCC(c3oc4cc([C@H](C5CC5)C(C)(C)C(N)=O)ccc4c3-c3cnn(C(C)(C)C)c3)CC2)c1            pEC50  6.30 to 7.00
4  COc1ccc(F)c(N2CCC(c3oc4cc([C@@H](CC(=O)O)C5CC5)ccc4c3CCC(C)(C)C)CC2)c1            pEC50  6.30 to 7.00

Data request: Supply recorded pEC50 for COc1cccc(N2CCC(c3oc4cc([C@@H](CC(=O)O)C5CC5)ccc4c3C(=O)Nc3cc(C(F)(F)F)ccc3Cl)CC2)c1 here.
Data returned: 7.00 to 8.00

Data request: Supply recorded pEC50 for COc1ccc(F)c(N2CCC(c3oc4cc(C(C)CC(=O)O)ccc4c3-c3cccc(C(C)(C)C)c3)CC2)c1 (stereo not shown) here.
Data returned: 6.30 to 7.00

Data request: Supply recorded pEC50 for COc1cccc(N2CCC(c3oc4cc(C(CC(=O)O)C5CC5)ccc4c3C(=O)Nc3cccc(N(C)C)c3)CC2)c1 (stereo not shown) here.
Data returned: 6.30 to 7.00

Data request: Supply recorded pEC50 for COCC(C)(C)n1cc(-c2c(C3CCN(c4cccc(OC)c4)CC3)oc3cc(C(CC(=O)O)C4CC4)ccc23)cn1 (stereo not shown) here.
Data returned: 6.30 to 7.00

Data request: Supply recorded pEC50 for COc1cccc(N2CCC(c3oc4cc(C(CC(=O)O)C5CC5)ccc4c3-c3cnn(C(C)(C)C(=O)N(C)C)c3)CC2)c1 (stereo not shown) here.
Data returned: 6.30 to 7.00

Data request: Supply recorded pEC50 for COc1cccc(N2CCC(c3oc4cc([C@@H](CC(=O)O)C5CC5)ccc4c3C(=O)Nc3cc(C(C)=O)ccc3Cl)CC2)c1 here.
Data returned: 7.00 to 8.00

Data request: Supply recorded pEC50 for COc1cccc(N2CCC(c3oc4cc(C(CC(=O)O)C5CC5)ccc4c3C(=O)Nc3c(F)cccc3Br)CC2)c1 (stereo not shown) here.
Data returned: 6.30 to 7.00

Data request: Supply recorded pEC50 for O=C(O)C[C@H](c1ccc2c(C(=O)Nc3cc(F)ccc3Cl)c(C3CCN(c4ccc5c(c4)OCO5)CC3)oc2c1)C1CC1 here.
Data returned: ≥ 8.00
